Where do these numbers come from? They come from patent US20050227220A1.

# STUDY SYSTEM: T1, TRβ ligand binding domain (UniProt P10828 202-461, limits assumed)
# T1 construct: also called Thyroid Receptor LBD; TRβ LBD
# T1 sequence (looked up): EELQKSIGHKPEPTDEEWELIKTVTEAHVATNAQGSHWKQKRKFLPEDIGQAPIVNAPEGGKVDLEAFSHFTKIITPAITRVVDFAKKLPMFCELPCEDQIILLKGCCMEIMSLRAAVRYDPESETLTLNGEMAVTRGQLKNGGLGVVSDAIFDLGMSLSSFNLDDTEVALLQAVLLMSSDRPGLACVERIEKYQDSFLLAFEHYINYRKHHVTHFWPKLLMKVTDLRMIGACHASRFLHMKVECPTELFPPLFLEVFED
# MEASUREMENT DESCRIPTION: fluorescence polarization, apparent affinity, with T3
No end group written: not given here. fluorescein = fluorescein: fluorescein label attached at the N-terminus of the peptide
MEASURED QUANTITY: Kd (µM)
Report as a plain number; the unit µM is understood.

Would you kindly share the measured Kd for fluorescein-GHSFADPASNLGLEDIIRKALMGSF (also called NCOR peptide; NCoR 2251-2275) [Fluoroscein-NCOR ID-C peptide (NCoR amino acids 2251-2275)] ? 6.2
